Assay: Liver microsome stability, rat
Type: in vitro ADME
Conditions: liver microsomes
CLint scaled listing for selected compounds.

Some entries whose results are on file:
Compound: N#C[C@H](C[C@@H]1CCNC1=O)NC(=O)[C@@H]1[C@H]2CCC[C@H]2CN1C(=O)[C@@H](NC(=O)C(F)(F)F)C1CCCCC1
CLint scaled: < 17.3 mL/min/kg
//
Compound: CC(C)(C)NC(=O)C(=O)[C@H](C[C@@H]1CCNC1=O)NC(=O)[C@@H]1[C@H]2CCC[C@H]2CN1C(=O)[C@@H](NC(=O)C(F)(F)F)C1CCCCC1
CLint scaled: 25 mL/min/kg
//
Compound: CC(C)(C)[C@H](NC(=O)C(F)(F)F)C(=O)N1C[C@@H]2CCC[C@@H]2[C@H]1C(=O)N[C@H](C#N)C[C@@H]1CCNC1=O
CLint scaled: < 17.3 mL/min/kg

# input for lookup
Prompt: Tell me the measured CLint scaled of CC(C)(C)[C@H](NC(=O)C(F)(F)F)C(=O)N1C[C@H]2[C@@H]([C@H]1C(=O)N[C@H](C#N)C[C@@H]1CCNC1=O)C2(C)C [nirmatrelvir, reference compound] , please.
Completion: < 17.3 mL/min/kg

* * *

Assay: Hepatocytes stability, rat
Format: in vitro ADME
Measurement kind: CLint scaled (mL/min/kg)
Enter your answer as a number in mL/min/kg; do not include the unit.

Some entries whose results are on file:
Molecular string: CC(C)(C)[C@H](NC(=O)C(F)(F)F)C(=O)N1C[C@@H]2CCC[C@@H]2[C@H]1C(=O)N[C@H](C#N)C[C@@H]1CCNC1=O
Unit spec: mL/min/kg
CLint scaled: 32

Molecular string: CC(C)(C)NC(=O)C(=O)[C@H](C[C@@H]1CCNC1=O)NC(=O)[C@@H]1[C@H]2CCC[C@H]2CN1C(=O)[C@@H](NC(=O)C(F)(F)F)C1CCCCC1
Unit spec: mL/min/kg
CLint scaled: 42

# input for lookup
Prompt: Tell me the measured CLint scaled of N#C[C@H](C[C@@H]1CCNC1=O)NC(=O)[C@@H]1[C@H]2CCC[C@H]2CN1C(=O)[C@@H](NC(=O)C(F)(F)F)C1CCCCC1 , please.
Completion: 51

* * *

Assay: Liver microsome stability, mouse
Format: in vitro ADME
Conditions: liver microsomes
Measurement kind: CLint scaled (mL/min/kg)
Enter your answer as a number in mL/min/kg; do not include the unit.

Prompt: Tell me the measured CLint scaled of N#C[C@H](C[C@@H]1CCNC1=O)NC(=O)[C@@H]1[C@H]2CCC[C@H]2CN1C(=O)[C@@H](NC(=O)C(F)(F)F)C1CCCCC1 , please.
Completion: 215

* * *

CLint scaled listing for selected molecules.
Assay: Hepatocytes stability, mouse
Assay type: in vitro ADME
Enter your answer as a number in mL/min/kg; do not include the unit.

Some entries whose results are on file:
Molecule: N#C[C@H](C[C@@H]1CCNC1=O)NC(=O)[C@@H]1[C@H]2CCC[C@H]2CN1C(=O)[C@@H](NC(=O)C(F)(F)F)C1CCCCC1
Val: 455
--
Molecule: CC(C)(C)[C@H](NC(=O)C(F)(F)F)C(=O)N1C[C@H]2[C@@H]([C@H]1C(=O)N[C@H](C#N)C[C@@H]1CCNC1=O)C2(C)C [nirmatrelvir, reference compound]
Val: 169
--
Molecule: CC(C)(C)[C@H](NC(=O)C(F)(F)F)C(=O)N1C[C@@H]2CCC[C@@H]2[C@H]1C(=O)N[C@H](C#N)C[C@@H]1CCNC1=O
Val: 435

# input for lookup
Prompt: Tell me the measured CLint scaled of CC(C)(C)NC(=O)C(=O)[C@H](C[C@@H]1CCNC1=O)NC(=O)[C@@H]1[C@H]2CCC[C@H]2CN1C(=O)[C@@H](NC(=O)C(F)(F)F)C1CCCCC1 , please.
Completion: 1020

* * *

Assay: Liver microsome stability, human
Format: in vitro ADME
Conditions: liver microsomes
CLint scaled listing for selected compounds.
Enter your answer as a number in mL/min/kg; do not include the unit.

Some entries whose results are on file:
Compound: CC(C)(C)[C@H](NC(=O)C(F)(F)F)C(=O)N1C[C@H]2[C@@H]([C@H]1C(=O)N[C@H](C#N)C[C@@H]1CCNC1=O)C2(C)C [nirmatrelvir, reference compound]
Unit spec: mL/min/kg
CLint scaled: 29
--
Compound: N#C[C@H](C[C@@H]1CCNC1=O)NC(=O)[C@@H]1[C@H]2CCC[C@H]2CN1C(=O)[C@@H](NC(=O)C(F)(F)F)C1CCCCC1
Unit spec: mL/min/kg
CLint scaled: 19

Prompt: Tell me the measured CLint scaled of CC(C)(C)[C@H](NC(=O)C(F)(F)F)C(=O)N1C[C@@H]2CCC[C@@H]2[C@H]1C(=O)N[C@H](C#N)C[C@@H]1CCNC1=O , please.
Completion: 13

* * *

Experiment: Liver microsome stability, mouse
Type: in vitro ADME
Settings: liver microsomes
Measurement kind: CLint scaled (mL/min/kg)
Enter your answer as a number in mL/min/kg; do not include the unit.

Some entries whose results are on file:
Compound: CC(C)(C)NC(=O)C(=O)[C@H](C[C@@H]1CCNC1=O)NC(=O)[C@@H]1[C@H]2CCC[C@H]2CN1C(=O)[C@@H](NC(=O)C(F)(F)F)C1CCCCC1 [4a]
CLint scaled [mL/min/kg]: 212
//
Compound: CC(C)(C)[C@H](NC(=O)C(F)(F)F)C(=O)N1C[C@@H]2CCC[C@@H]2[C@H]1C(=O)N[C@H](C#N)C[C@@H]1CCNC1=O [2a]
CLint scaled [mL/min/kg]: 262

# input for lookup
Prompt: Tell me the measured CLint scaled of CC(C)(C)[C@H](NC(=O)C(F)(F)F)C(=O)N1C[C@H]2[C@@H]([C@H]1C(=O)N[C@H](C#N)C[C@@H]1CCNC1=O)C2(C)C [nirmatrelvir, reference compound] , please.
Completion: 329

Just for reference, paper PMC10176891 is where these values come from.
